Measured Kd, listed per entry.
- test.target: T1, GFP-9S library array, motif 4 ND N98L;D124A (synthetic construct, N98L;D124A)
- T1 chain: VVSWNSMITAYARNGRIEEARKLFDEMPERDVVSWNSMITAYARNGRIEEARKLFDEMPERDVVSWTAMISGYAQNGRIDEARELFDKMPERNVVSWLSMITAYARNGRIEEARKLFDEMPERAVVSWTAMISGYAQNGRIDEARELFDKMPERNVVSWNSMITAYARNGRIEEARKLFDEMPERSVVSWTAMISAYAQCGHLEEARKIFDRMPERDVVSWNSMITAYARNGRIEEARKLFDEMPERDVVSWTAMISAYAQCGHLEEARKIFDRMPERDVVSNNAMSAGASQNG
- experiment.summary: high-throughput RNA pulldown from lysate on Ni-NTA beads; HRP: 50 mM Tris pH 8, 150 mM NaCl, 1 mM beta-mercaptoethanol, 50 ug/ml BSA, 3 ug/ml yeast RNA, 0.5% heparin; ITC and FP: Tris pH 8, 200 mM KCl, 5% glycerol; MST: 50 mM Tris pH 8, 200 mM NaCl, 1 mM DTT, BSA, heparin, 0.05% Tween 20
- test.settings: tags: N-terminal His-eGFP; label: 5' IRDye 800CW
Response body: numeric value in µM, unit text excluded.

{"columns": ["binder", "measure.name", "readout.unit", "measured.result"],
 "data": [
  ["AUUAAACGUGA (ssRNA) [IR-rpoA-A]", "Kd", "µM", 0.0909]
]}

API: the following record is the query input.
Prompt line: Find the recorded Kd belonging to AUUAUACGUGA (ssRNA) [IR-rpoA-U] and report it.
Response line: 0.0434
